- measurement.target: T1, cynomolgus monkey CGRP receptor (cynomolgus monkey, UniProt A0A2K5VQ71 34-472)
- T1 construct: whole, on cells; Presented as detergent-solubilized lysate of HEK cells expressing the cynomolgus receptor; also called Cyno CGRP Receptor; Cynomolgus Monkey CGRP Receptor/HEK detergent-solubilized cell lysate
- T1 sequence (A0A2K5VQ71 entry or part of it): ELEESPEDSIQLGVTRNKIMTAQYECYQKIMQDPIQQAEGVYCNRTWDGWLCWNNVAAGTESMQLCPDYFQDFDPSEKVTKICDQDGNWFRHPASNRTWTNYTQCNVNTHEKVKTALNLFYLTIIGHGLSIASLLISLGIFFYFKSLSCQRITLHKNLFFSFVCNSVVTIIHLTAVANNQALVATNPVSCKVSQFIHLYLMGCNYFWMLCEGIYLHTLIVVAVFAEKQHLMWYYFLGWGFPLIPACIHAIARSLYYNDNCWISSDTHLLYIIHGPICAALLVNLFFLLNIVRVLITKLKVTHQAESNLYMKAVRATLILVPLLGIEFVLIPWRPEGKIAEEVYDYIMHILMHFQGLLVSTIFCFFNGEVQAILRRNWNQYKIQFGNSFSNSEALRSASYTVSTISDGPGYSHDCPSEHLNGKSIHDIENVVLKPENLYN
- test.summary: yeast-displayed Fab, FACS, detergent-solubilized lysate of cynomolgus CGRP receptor/HEK cells vs blank cells
reported.endpoint: Mutant vs. 4E4.2 Parent Specific Binding Ratio

QUERY: Would you kindly share the measured Mutant vs. 4E4.2 Parent Specific Binding Ratio for anti-CGRP receptor variant 06, yeast-displayed Fab (Fab, V domains shown, also called Variant Ab ID 06) VH: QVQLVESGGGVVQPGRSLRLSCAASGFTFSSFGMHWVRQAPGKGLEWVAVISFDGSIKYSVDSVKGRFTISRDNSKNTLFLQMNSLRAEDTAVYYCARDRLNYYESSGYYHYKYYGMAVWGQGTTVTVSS VL: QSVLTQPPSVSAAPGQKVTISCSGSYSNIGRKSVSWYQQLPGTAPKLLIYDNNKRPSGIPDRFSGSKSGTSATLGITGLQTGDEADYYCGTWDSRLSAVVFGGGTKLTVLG ?
RESULT: 2.5 fold
